assayName: soluble fraction after stress (log2 fold change); higher = more stays soluble; pooled small domains, quantitative proteomics;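 note: 20 min heating vs room temperature control held 20 min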
assayConditions: stress: 75 degC
measuredProperty: soluble fraction (log2)
Hey, just send me the number, nothing else.

• HMFERFIFTDEVYIRLKKSGLPQTTLRPLLEIHGKSFDHNEINIILSGLIPNQDFERYAQIIKSHSRF = -4.24

Any idea what soluble fraction (log2) was measured for HMKVKEYKLVDWISTFTKNEGYGISQKAAMLLAEFLGDDLSRIANEIEKLKLLVEKGTTINDVHIEENI ?
-1.09

Quick one: soluble fraction (log2) of HMLKIAENIYQRRKEKNITQEELADFMMVTKASVSKWETGQSYPDILLLPKLATFFNVTVDELIGYEPQ ?
-2.72

====

assayName: soluble fraction after stress (log2 fold change); higher = more stays soluble; pooled small domains, quantitative proteomics
assayConditions: stress: 75 degC
measuredProperty: soluble fraction (log2)
Form: value (number only, do not type unit).

• HMSTSERLKQVMEVKGFNLKTFSEQADIPYRTLQNYILTNREPSAESLAKLHSQLGINLNWLMSGKGEMF = -0.685

For the sequence shown here, HMDKPGMRLNQFIAHSGISSRREADNLIKAGLVQVNGKIIVEMGFRVMPTDIVKFNNETIAS , give the reported soluble fraction (log2).
-2.08

Reported soluble fraction (log2) for HMGPTLSPAEKRVFEVIPYDAILQDMVIRAAELPPGEVLAALTTLELKGLIKRLPGNLVMRRAR : what is it?
-0.294

====

assayName: soluble fraction after stress (log2 fold change); higher = more stays soluble; pooled small domains, quantitative proteomics
assayConditions: stress: 75 degC
measuredProperty: soluble fraction (log2)
# respond with the number and nothing more

See these solved cases before continuing.
• HMQRDELRYDQFLTALQNKEFTQLNVRFDDYTYLVTGTFQSGRPFSTRGPVSEEFIRLIESSGVQVTWLPM = -1.65
• HMLTLAVPNSINMRLDKYLSENIDYLSRSKIQGLINDGKVTINGENEKSSYKLNGDESIVIYYEE = -0.377
• HMSDGYETLVNMAKPFLNNSKQITENDITDAVNTVSVMLKKRYDMTDEDIRKAVSELLHFYA = -0.305

I would be grateful if you could share the reported soluble fraction (log2) for HMGVPTEQEIGKRILAWRKLRGMTLQQLADKAGVGLTTIHNLETGLWYAKMPTYLYIAEALGVSLDALIYG .
-1.76

Query (sequence): HMEGFSAGQFVRASVDNTAFYLKRPKGDAVADKLLRRGASMKVISASGDYLKVELDSGEVGFVPPVMVE ; field requested: soluble fraction (log2)
0.0267

# get_value(readout='soluble fraction (log2)', item= HMDEKVTIPSVSGLLLSEAKTKLVDAGLTVETVYDDESKEAKDTVLSQSPLQYGKVDKGTVVTLTVSSGKG )
0.332

What measured soluble fraction (log2) goes with HMGGGTPEERLATLAAIAERQEMLLERLGPNNPLVSLGQYSRTLSRMVQLAGFKDASQYFNELPLDFQMPE ?
-0.408

// soluble fraction (log2) lookup, key: HMTRNEFLTALRGRLSALPKEEQDAALKYYEEYFDEAESEEDAARQLGSPDSIAEKILADYA
0.418

====

assayName: soluble fraction after stress (log2 fold change); higher = more stays soluble; pooled small domains, quantitative proteomics
assayConditions: stress: 75 degC
We'd kindly ask you to apply these soluble fraction (log2) classes: bottom bin (below -0.7), middle bin (-0.7 to below -0.2), top bin (-0.2 or more)

• HMSELSGSQLKAIREEKHIPLEQVASATRIRLSLLEALEMDEYAELGSRTQARGFLKLYADFLGVPFEA = bottom bin
• HMNQNAMIGAHIRNLRLAKKLTLKQLSDESGLSVGFLSQLERGMSSIAIDTLARLAHILGADLSSFF = bottom bin
• HMREVPHGEYEVKIEKLELVESKAGDPMVTVWFKVLAGDYKGSMIFMNQVITKGFQIHIMNEFLR = middle bin
• HMESKKKTYTVKSGDTLVSILKREGVPQELIFKDYLGLFLELNPQISDINKLRVGQEIVLPVPG = top bin
• HMGTIEQAFKGKAPGSAHLYDRARAVLAGGVTHDTRIHAPFPIMVQRALGARKWDVDGNEYIDY = top bin

Classify this sequence: HMQNSMTTTPDVVGKTGTFAEQMLKAANLNVQFAGDSSGKVVAQDVEAGTSAAYGTIITLTMDS
top bin

Band for the recorded soluble fraction (log2) of HMTVTISPGYEGRLLRSYLKNTLSLSTSALARLKTREDGITVNGVRVTVRYVLHAGDLLQLAVD ?
middle bin

Which of the defined bands does the recorded soluble fraction (log2) of HMNYLDVNIPVTSAVWMGKQLPEMGTLIYLTPDKDVEGMLFIKQATKDKPDGEYIEAKVLGYKEGRVLFDF sit within?
bottom bin

Band assignment needed for HMGGVEWLTHPIGPRDSLQVLARAGLEARPTSDGDYEIYGQERWPQRDQARLMGWLRRFGQWVWQALYDK please.
middle bin

Category of HMIDHLPPQRAAVLAFLQRELVAGRSPSLAEIALAFGFASRNAAQKHVQALVADGLLEQATGRSRGLRLPG :
bottom bin

In plain terms, what class is HMGAPAISYSKFLEQVDRKNVASVTIYKDGRIDGVMTSGSRFATESPSDPGLVGDLLKAGVEIRAKPP ?
top bin

Returns: class label. Input: HMDLDPNKPAIPIAYPRVLLNIMAEKGFSRTEVLAGSGLADSVFDKPDHRITPAQFLFILMNSFYLS
middle bin

Place this sequence in its band: HMGTHDAGTRFFDNLDSLLQNRDATRADVLAVYLLAVSLGFRGKHRSVSSAPQIAHYRNQAYVTLFQ
top bin

Lab log: HMQTTVHLSPEEMVIMNALKQESPIDLPILRAQVEMSNKLWDTSMKNLSKLGQLKVEKIGEQVSVSLI — assign soluble fraction (log2) category
middle bin

====

assayName: soluble fraction after stress (log2 fold change); higher = more stays soluble; pooled small domains, quantitative proteomics
assayConditions: stress: 75 degC
We use -0.6 as the dividing line for soluble fraction (log2): on or above the line is rule met, below is rule not met.

Example results:
- HMIHQIPVNVQKIRQIIGINLNENDYLNYLAKLGFVIDEGLIIVPSFRSDVKTQNDLAEEIARV: rule met
- HMAPETALQILEQIQINPKVTMTDLANLTGYSRRWVAQTMKQLQELNVIKRVGSTKTGYWEIIA: rule met
- HMGTRHPLPYAYARANTVLLEDDGDRLVLWAPENVSLTALGEVLRRFDVDALERESSSTLANRIAVAYAG: rule not met
- HMEPFEQLLDRITSQTGKEPEEVVARMNELITERFDGNIRPEAALVIVAKRDNIQFMDLLDQLKQALL: rule met
- HMIGHIGSAVMLNAKLRPRLPLLHVLALTQSLGERLSAAEAQPEVYRWSDPGQSRVIAEFEGGRLTRWRLE: rule not met

Is soluble fraction (log2) at least -0.6? Consider HMHYALTVDFPAALEARIDPAHRAALRGVLAHDPRPSYQSDPERLYGVAFAGKNVKFTVEDGVLTVRKIEE
rule met

Tell me whether soluble fraction (log2) is at least -0.6 here: HMRPDSFEAGEAEAGSRLDRLLAARLGIPRNQVQQWIGGGRVTVDAEPVRASLVVRAGMRIAWDPPPPP
rule not met

====

Measured soluble fraction (log2) by item
assayName: soluble fraction after stress (log2 fold change); higher = more stays soluble; pooled small domains, quantitative proteomics
assayConditions: stress: 75 degC
Could you respond with only the numeric value?

Illustrative cases are given below, each with its answer.
* HMSFDGFSDRLKSVLNSGKYTQKEAAEKINISEYSFTKYLNGRIPQTEILYKIARLYNKSMEWLLTGKDPI | -2.74
* HMDSKYLRIFSTLIDEMEKMSPGEQLQSERELSQRFQVSPMTVRRALHKLSTEGYTSAIPGKGTFVRK | -0.707
* HMITLPDFVGKDVETVKAWAKENGITLIVNKVEDSAKKDTVISQTPTTYDYSKIMKGSSFTVNVAKE | 0.206

Turning now to a further record.
// soluble fraction (log2) lookup, key: HMGVSLREVPVAEHGDWIGRPIKELGIPAEVLIVLVRRADGTTVVPKGGTVLQQGDMLVVNEWEE
-1.16

====

assayName: soluble fraction after stress (log2 fold change); higher = more stays soluble; pooled small domains, quantitative proteomics
assayConditions: stress: 75 degC
Items are presented alongside their recorded soluble fraction (log2).

• HMTIDANAIEKMVLDLIGEHPNEWGRYRDGDKKVQGFFVGQIMKATSGQADGKIVNQILSQHAEA = -0.0337

// soluble fraction (log2) lookup, key: HMAAGADEATTVPNVSGDTLNQAIKSLKAEGLGYMLSGAGARVRDQMPEPGAEMTKGSVVMLYMDGDAEVD
-0.0497

Bench note: what soluble fraction (log2) did HMHTADDFKQLAKQTSNGQLRTRYLALYLFKNGETRTQIATYLGVARGSVNTWVSNYLAHGLEGLQSKP show?
-2.95

soluble fraction (log2) lookup needed for HMHPARITATVRVGEGDLVDIEREAELGGPIHSKGVMILSSFLGARYARTVPLSLSASLVFEQSY , thanks.
0.0581

Look up soluble fraction (log2) for this sequence: HMRAAFEHLTIGQTVSGLVKSQARGVSLVEIEGQTVAMRLPQPVAVGDTLRLRFAGHMPQPVFLLDT
-1.59

I would be grateful if you could share the reported soluble fraction (log2) for HMGDTPVDFSEFIRWVDTGVVDRVELTGNEIVGTSSSGERFSTYAPPQYEGLGNKLIERDIVVVATAA .
-0.0455

Looking for the measured soluble fraction (log2) of HMGPESKLTDAIKDYIYALYENLKGKSKFRNTIIEEVKKLYGVDISRESIRRVVNQKTDAETTENDDDEKA , can you help?
0.432

For the sequence shown here, HMSNLGLQIVRTLTDAGKGVVFITHKLKEALTIADRINVLRRGKVVGDADPKTASESQIAEMMVGRPVQL , give the reported soluble fraction (log2).
-0.0755

Quick one: soluble fraction (log2) of HMVKSYEVPDVSNLTVLEAEAKLQEMGFEIDEEQKEISSSDIESGRVVKTSPQAGSKRKEGAIITLYVSSG ?
0.65

The measured values listed here are drawn from the domain aggregation screens of Martell et al. (2025).
